System: human red blood cells (hRBCs)
Assay: K+ leakage from hRBCs (flame atomic emission)
Format: cell-based
QUANTITY_NAME: KC50 (50% K+ ion leakage relative to 1% TritonX-100) (µM)
Numbers only, in µM.

Dear colleague, I am looking for the recorded KC50 (50% K+ ion leakage relative to 1% TritonX-100) of the following compound: CC(C)C[C@@H](NC(=O)[C@H](C)NC(=O)CNC(=O)[C@@H](NC=O)C(C)C)C(=O)N[C@@H](C)C(=O)N[C@@H](C(=O)N[C@H](C(=O)N[C@@H](C(=O)N[C@@H](Cc1c[nH]c2ccccc12)C(=O)N[C@H](CCCCN)C(=O)N[C@@H](Cc1c[nH]c2ccccc12)C(=O)N[C@H](CC(C)C)C(=O)N[C@@H](Cc1c[nH]c2ccccc12)C(=O)N[C@H](CC(C)C)C(=O)N[C@@H](Cc1c[nH]c2ccccc12)C(=O)NCCO)C(C)C)C(C)C)C(C)C (racemic)
0.01

The measurements presented in this section are drawn from patent US9243037B2.
